Every entry's value here was drawn from paper PMC5935190.

- system: M. tuberculosis BioA (Mycobacterium tuberculosis, UniProt P9WQ81)
- Sequence (P9WQ81 1-437): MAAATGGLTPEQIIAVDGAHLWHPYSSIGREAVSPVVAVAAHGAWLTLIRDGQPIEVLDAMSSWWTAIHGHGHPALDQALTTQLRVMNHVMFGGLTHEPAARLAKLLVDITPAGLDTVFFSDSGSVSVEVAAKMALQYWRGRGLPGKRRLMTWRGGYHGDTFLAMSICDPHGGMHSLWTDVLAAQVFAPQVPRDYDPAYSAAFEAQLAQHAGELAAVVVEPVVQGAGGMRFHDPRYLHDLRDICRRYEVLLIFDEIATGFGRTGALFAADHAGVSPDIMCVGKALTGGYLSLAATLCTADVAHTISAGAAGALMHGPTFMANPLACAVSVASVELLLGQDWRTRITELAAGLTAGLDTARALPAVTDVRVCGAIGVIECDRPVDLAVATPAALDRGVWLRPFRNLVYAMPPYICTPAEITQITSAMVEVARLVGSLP
- experiment-description: biochemical
- Type: biochemical
- study-conditions: IC50 (μM) BioA
measured-attribute: IC50 (µM)

> print(dat)
                                   compound                                    system  quantitative.result
1  CC1(c2ccc(S(=O)(=O)c3ccccc3)cc2)OC(=O)C=CC1=O (stereo not shown)  M. tuberculosis BioA (Mycobacterium tuberculosis, UniProt P9WQ81)                  114
